Test system: blood platelets
Experiment: Inhibition of blood platelet aggregation (aggregometer, ADP)
Type: cell-based, human (healthy testees)
Settings: Platelet, 0.05 h; human PRP, ADP 2 to 4 μM, 3 min incubation, 37° C.; read-out: IC50 (Inhibition of blood platelet aggregation)
Counter-ions that a name gives are not always drawn.

{"compound": "N#Cc1cccc(-[n+]2noc([NH-])n2)c1", "IC50": "100 nM"}
{"compound": "COc1ccc(Cl)cc1-[n+]1noc([NH-])n1", "IC50": "180 nM"}
{"compound": "Cc1cc(Cl)ccc1-[n+]1noc([NH-])n1 [Example 13, hydrochloride]", "IC50": "200 nM"}
{"compound": "[NH-]c1c[n+](N2CCOCC2)no1 [SIN-1, reference compound]", "IC50": "3900 nM"}
{"compound": "O=C([N-]c1n[n+](-c2cccc(C(F)(F)F)c2)no1)c1ccncc1", "IC50": "90 nM"}
{"compound": "Cc1c(Cl)cccc1-[n+]1noc([NH-])n1 [Example 1, hydrochloride]", "IC50": "320 nM"}
{"compound": "CC(=O)Oc1ccccc1C(=O)[N-]c1n[n+](-c2cccc(Cl)c2C)no1", "IC50": "200 nM"}
{"compound": "O=[N+]([O-])OCC(CO[N+](=O)[O-])O[N+](=O)[O-] [GTN, nitroglycerine, reference compound]", "IC50": "100000 nM"}
{"compound": "O=C([N-]c1n[n+](-c2cccc(C(F)(F)F)c2)no1)c1cccnc1", "IC50": "190 nM"}

* * *

Assay: Maximum tolerable dose (MTD) study i.p.
Type: in vivo, rat
Settings: rat, in vivo, ip; intraperitoneal, rats
Structures can show the parent of a compound that is named as a salt.

{"compound": "Cc1c(Cl)cccc1-[n+]1noc([NH-])n1 [Example 1, hydrochloride]", "MTD": "~20 mg/kg"}

* * *

Tested on: PAI-1
Experiment: Inhibition of plasminogen activator inhibitor (PAI-1) from blood platelets (fibrinolytic activity)
Type: cell-based, human
Conditions: 50 μM, 60 minutes, compared to control
Quick rule: % Inhibition of PAI-1 activity of at least 40% means Criterion met, below that means Criterion not met.

{"smiles_notation": "N#Cc1ccc(-[n+]2noc([NH-])n2)cc1", "label_value": "Criterion met"}
{"smiles_notation": "Cc1cccc(C)c1-[n+]1noc([NH-])n1", "label_value": "Criterion not met"}
{"smiles_notation": "[NH-]c1n[n+](-c2ccc(Cl)c(Cl)c2)no1", "label_value": "Criterion not met"}
{"smiles_notation": "COc1ccc(Cl)cc1-[n+]1noc([NH-])n1", "label_value": "Criterion not met"}

* * *

Test system: PAI-1
Experiment: Inhibition of plasminogen activator inhibitor (PAI-1) from blood platelets (fibrinolytic activity)
Assay type: cell-based, human
Conditions: 50 μM, 60 minutes, human PRP; control 3.24
Everything with PAI-1 activity lower than 2 U/10^8 platelets is not met; everything else, including exactly 2 U/10^8 platelets, is met.

{"smiles_notation": "N#Cc1ccc(-[n+]2noc([NH-])n2)cc1", "label_value": "not met"}
{"smiles_notation": "[NH-]c1n[n+](-c2ccc(Cl)c(C(F)(F)F)c2)no1", "label_value": "not met"}
{"smiles_notation": "[NH-]c1n[n+](-c2ccc(Cl)c(Cl)c2)no1", "label_value": "met"}
{"smiles_notation": "COc1ccc(Cl)cc1-[n+]1noc([NH-])n1", "label_value": "met"}

* * *

The following molecules are listed with their measured Guanylate cyclase activity values.
Biological target: soluble guanylate cyclase (Homo sapiens, UniProt Q02153)
Construct: The guanylate cyclase activity in the supernatant after incubation with and without the test substance; endogenous in cells; host or cells: human blood platelets, supernatant of homogenate
Sequence (Q02153 whole entry): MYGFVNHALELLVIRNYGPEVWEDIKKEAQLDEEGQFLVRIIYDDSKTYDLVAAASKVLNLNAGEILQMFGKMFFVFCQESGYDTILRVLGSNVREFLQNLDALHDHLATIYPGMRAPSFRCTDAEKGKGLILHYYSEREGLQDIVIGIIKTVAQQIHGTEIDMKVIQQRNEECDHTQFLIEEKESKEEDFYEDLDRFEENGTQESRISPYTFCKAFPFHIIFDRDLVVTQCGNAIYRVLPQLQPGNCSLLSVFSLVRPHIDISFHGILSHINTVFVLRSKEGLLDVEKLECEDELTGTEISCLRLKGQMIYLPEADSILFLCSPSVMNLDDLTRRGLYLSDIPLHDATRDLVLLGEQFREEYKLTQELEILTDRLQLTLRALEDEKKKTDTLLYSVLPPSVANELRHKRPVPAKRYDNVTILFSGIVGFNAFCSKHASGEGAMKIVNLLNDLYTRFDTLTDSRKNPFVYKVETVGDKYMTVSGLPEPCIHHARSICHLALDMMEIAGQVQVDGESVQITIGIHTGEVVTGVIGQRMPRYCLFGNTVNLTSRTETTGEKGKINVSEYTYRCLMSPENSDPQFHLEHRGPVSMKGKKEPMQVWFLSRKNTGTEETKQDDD
Sequence (Q02108 whole entry partner): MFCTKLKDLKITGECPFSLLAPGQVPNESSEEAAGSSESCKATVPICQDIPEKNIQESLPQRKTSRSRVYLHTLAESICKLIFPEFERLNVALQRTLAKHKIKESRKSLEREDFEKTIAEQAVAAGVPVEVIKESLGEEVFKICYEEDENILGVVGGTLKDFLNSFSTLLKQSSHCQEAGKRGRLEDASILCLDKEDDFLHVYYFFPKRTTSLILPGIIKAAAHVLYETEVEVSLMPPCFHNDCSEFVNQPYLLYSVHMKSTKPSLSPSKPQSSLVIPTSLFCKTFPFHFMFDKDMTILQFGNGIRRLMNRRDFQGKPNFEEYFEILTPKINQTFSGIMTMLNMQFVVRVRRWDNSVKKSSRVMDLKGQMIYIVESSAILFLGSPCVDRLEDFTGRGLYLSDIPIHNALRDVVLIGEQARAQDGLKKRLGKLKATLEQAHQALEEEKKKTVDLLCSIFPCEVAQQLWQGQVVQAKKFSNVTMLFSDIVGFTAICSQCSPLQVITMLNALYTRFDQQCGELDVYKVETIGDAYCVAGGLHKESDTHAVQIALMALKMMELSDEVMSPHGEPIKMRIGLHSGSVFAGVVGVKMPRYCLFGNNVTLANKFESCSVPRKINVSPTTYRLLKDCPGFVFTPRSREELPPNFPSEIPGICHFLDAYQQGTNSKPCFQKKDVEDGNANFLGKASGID
Experiment: Stimulation of guanylate cyclase from blood platelets (RIA)
Assay type: biochemical
Settings: 10 μm (so in the source), 37° C.
Counter-ions that a name gives are not always drawn.

{"molecule": "Cc1c(Cl)cccc1-[n+]1noc([N-]C(=O)c2cccnc2)n1", "Guanylate cyclase activity": "18693 pmole c-GMP/mg prot. × 15 minutes"}
{"molecule": "[NH-]c1c[n+](N2CCOCC2)no1 [SIN-1, reference compound]", "Guanylate cyclase activity": "59733 pmole c-GMP/mg prot. × 15 minutes"}
{"molecule": "N#Cc1ccc(-[n+]2noc([NH-])n2)cc1", "Guanylate cyclase activity": "64192 pmole c-GMP/mg prot. × 15 minutes"}
{"molecule": "Cc1c(Cl)cccc1-[n+]1noc([N-]C2CCCCC2)n1", "Guanylate cyclase activity": "72730 pmole c-GMP/mg prot. × 15 minutes"}
{"molecule": "COc1ccc(Cl)cc1-[n+]1noc([NH-])n1", "Guanylate cyclase activity": "47298 pmole c-GMP/mg prot. × 15 minutes"}
{"molecule": "[NH-]c1n[n+](-c2ccc(Cl)c(Cl)c2)no1", "Guanylate cyclase activity": "59716 pmole c-GMP/mg prot. × 15 minutes"}
{"molecule": "Cc1cc(Cl)ccc1-[n+]1noc([NH-])n1 [Example 13, hydrochloride]", "Guanylate cyclase activity": "48126 pmole c-GMP/mg prot. × 15 minutes"}
{"molecule": "Cc1c(Cl)cccc1-[n+]1noc([NH-])n1", "Guanylate cyclase activity": "61900 pmole c-GMP/mg prot. × 15 minutes"}
{"molecule": "[NH-]c1n[n+](-c2c(Cl)cccc2Cl)no1", "Guanylate cyclase activity": "76915 pmole c-GMP/mg prot. × 15 minutes"}
{"molecule": "[NH-]c1n[n+](-c2cccc(C(F)(F)F)c2)no1 [Example 3, hydrochloride]", "Guanylate cyclase activity": "47529 pmole c-GMP/mg prot. × 15 minutes"}
{"molecule": "[NH-]c1n[n+](-c2ccccc2C(F)(F)F)no1", "Guanylate cyclase activity": "37920 pmole c-GMP/mg prot. × 15 minutes"}
{"molecule": "CC(=O)Oc1ccccc1C(=O)[N-]c1n[n+](-c2cccc(Cl)c2C)no1", "Guanylate cyclase activity": "82100 pmole c-GMP/mg prot. × 15 minutes"}

* * *

Test: Maximum tolerable dose (MTD) study p.o.
Type: in vivo, rat
Settings: rat, in vivo, po; peroral, rats
Where a name gives a salt, the structure may show the parent alone.

{"compound": "Cc1c(Cl)cccc1-[n+]1noc([NH-])n1 [Example 1, hydrochloride]", "MTD [mg/kg]": 40}

* * *

Assay: LD50 test, intravenous
Set-up: species or system mice
Conditions: mouse, in vivo, female mice, single injection, read-out: LD50 with 95% confidence limits
Method: Two tests were carried out on male rats, namely a determination of the "maximum tolerable dose" (MTD) and a test using multiple peroral doses. In addition, a LD50 test was carried out intravenously on mice. (According to Litchfield and Wileoxon, J. Pharmacol. Exp. Therap. 96, 99-113, 1949). The intravenous LD50 -value was determined after one single injection of different doses of the compound prepared in Example 4.
recorded_metric: LD50 (mg/kg)

{"smiles_notation": "[NH-]c1n[n+](-c2ccc(C(F)(F)F)cc2)no1", "recorded_metric": "LD50", "recorded_number": 81}

* * *

Biological target: soluble guanylate cyclase (Homo sapiens)
Construct: The guanylate cyclase activity in the supernatant after incubation with and without the test substance; endogenous in cells; host or cells: human blood platelets, supernatant of homogenate
Test: Stimulation of guanylate cyclase from blood platelets (RIA)
Format: biochemical
Settings: 0.01 μM, 37° C.
Structures can show the parent of a compound that is named as a salt.
Guanylate cyclase activity: recorded values

{"compound": "[NH-]c1n[n+](-c2cccc(C(F)(F)F)c2)no1 [Example 3, hydrochloride]", "Guanylate cyclase activity": "2499 pmole c-GMP/mg prot. × 15 minutes"}
{"compound": "CC(=O)Oc1ccccc1C(=O)[N-]c1n[n+](-c2cccc(Cl)c2C)no1", "Guanylate cyclase activity": "1024 pmole c-GMP/mg prot. × 15 minutes"}
{"compound": "Cc1cc(Cl)ccc1-[n+]1noc([NH-])n1 [Example 13, hydrochloride]", "Guanylate cyclase activity": "7642 pmole c-GMP/mg prot. × 15 minutes"}
{"compound": "[NH-]c1n[n+](-c2ccc(Cl)c(Cl)c2)no1", "Guanylate cyclase activity": "2374 pmole c-GMP/mg prot. × 15 minutes"}
{"compound": "N#Cc1ccc(-[n+]2noc([NH-])n2)cc1", "Guanylate cyclase activity": "897 pmole c-GMP/mg prot. × 15 minutes"}
{"compound": "[NH-]c1c[n+](N2CCOCC2)no1 [SIN-1, reference compound]", "Guanylate cyclase activity": "0 pmole c-GMP/mg prot. × 15 minutes"}
{"compound": "Cc1c(Cl)cccc1-[n+]1noc([NH-])n1", "Guanylate cyclase activity": "4407 pmole c-GMP/mg prot. × 15 minutes"}
{"compound": "Cc1c(Cl)cccc1-[n+]1noc([N-]C2CCCCC2)n1", "Guanylate cyclase activity": "1761 pmole c-GMP/mg prot. × 15 minutes"}
{"compound": "[NH-]c1n[n+](-c2c(Cl)cccc2Cl)no1", "Guanylate cyclase activity": "383 pmole c-GMP/mg prot. × 15 minutes"}
{"compound": "COc1ccc(Cl)cc1-[n+]1noc([NH-])n1", "Guanylate cyclase activity": "2225 pmole c-GMP/mg prot. × 15 minutes"}
{"compound": "[NH-]c1n[n+](-c2ccccc2C(F)(F)F)no1", "Guanylate cyclase activity": "411 pmole c-GMP/mg prot. × 15 minutes"}
{"compound": "Cc1c(Cl)cccc1-[n+]1noc([N-]C(=O)c2cccnc2)n1", "Guanylate cyclase activity": "8139 pmole c-GMP/mg prot. × 15 minutes"}
